This listing pairs molecules with measured inhibition.
experiment summary: inhibitors of the yeast RAM network, pilot screen, dse1pr::URA3 reporter, 5-FOA selection (AID 869);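 further: 0% = DMSO wells with no growth and 100% = 10 µM 1-NA-PP1 with full growth; RAM network block rescues cells from 5-FOA so hits raise OD615 growth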
test conditions: S. cerevisiae dse1pr::URA3 5-FOA growth, OD615, 2 d; at 10 µM; hits give high values; strain carries analog-sensitive mutant Cbk1 kinase
Active and inactive are the calls of the source.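 How the source made its calls: active means inhibition over a set limit, the all-compound mean plus 3 SD, in both replicate runs; inconclusive means over that limit in just one replicate run; inactive means at or under that limit in both runs.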

>>> result("O=C(CCCSc1nc2sc3c(c2c(=O)[nH]1)CCC3)NCCCO")
"0.14% (inactive)"

Fill blank: measured inhibition of the molecule COc1cccc(C2NC(C)(C(=O)O)C3C(=O)N(C(C)C)C(=O)C23)c1O (stereo unspecified) is ____. 1.82% (inactive)

Fill blank: measured inhibition of the molecule C=C(C)Cn1c(C2CC(=O)N(c3ccccc3F)C2)nc2ccccc21 (stereo unspecified) is ____. 0.42% (inactive)
